Source of measurements: paper PMC12454493

Some compounds, each annotated with its measured inhibition at 10 µM.
test system: SK-MEL-5; test: NCI-60 one-dose SRB screen (Melanoma); assay type: cell-based; conditions: Homo sapiens, single dose 10 µM, 48 h, read-out: Growth inhibition percent (GI %)

- compound: "COc1ccc(-c2nn(-c3ccc(S(N)(=O)=O)cc3)cc2C(=O)OCC(=O)Nc2ccc(S(N)(=O)=O)cc2)cc1 [Compound 4c]"
  tested.target: "SK-MEL-5"
  unit.of.measurement: "%"
  value.modifier: "<"
  inhibition at 10 µM: 5
- compound: "CCOC(=O)c1ccc(NC(=O)COC(=O)c2cn(-c3ccc(S(N)(=O)=O)cc3)nc2-c2ccc(Br)cc2)cc1 [Compound 5d]"
  tested.target: "SK-MEL-5"
  unit.of.measurement: "%"
  value.modifier: "="
  inhibition at 10 µM: 36.3
- compound: "CCOC(=O)c1ccc(NC(=O)COC(=O)c2cn(-c3ccc(S(N)(=O)=O)cc3)nc2-c2ccc(C)cc2)cc1 [Compound 5b]"
  tested.target: "SK-MEL-5"
  unit.of.measurement: "%"
  value.modifier: "="
  inhibition at 10 µM: 39.3
- compound: "NS(=O)(=O)c1ccc(NC(=O)COC(=O)c2cn(-c3ccc(S(N)(=O)=O)cc3)nc2-c2ccccc2)cc1 [Compound 4a]"
  tested.target: "SK-MEL-5"
  unit.of.measurement: "%"
  value.modifier: "<"
  inhibition at 10 µM: 5
- compound: "CS(=O)(=O)c1ccc(-c2nn(-c3ccc(S(N)(=O)=O)cc3)cc2C(=O)NNC(N)=S)cc1 [Compound 9e]"
  tested.target: "SK-MEL-5"
  unit.of.measurement: "%"
  value.modifier: "<"
  inhibition at 10 µM: 5
- compound: "CCOC(=O)c1ccc(NC(=O)COC(=O)c2cn(-c3ccc(S(N)(=O)=O)cc3)nc2-c2ccc(OC)cc2)cc1 [Compound 5c]"
  tested.target: "SK-MEL-5"
  unit.of.measurement: "%"
  value.modifier: "="
  inhibition at 10 µM: 34.9
- compound: "NS(=O)(=O)c1ccc(NC(=O)COC(=O)c2cn(-c3ccc(S(N)(=O)=O)cc3)nc2-c2ccc(Br)cc2)cc1 [Compound 4d]"
  tested.target: "SK-MEL-5"
  unit.of.measurement: "%"
  value.modifier: "="
  inhibition at 10 µM: 14.3
- compound: "Cc1ccc(-c2nn(-c3ccc(S(N)(=O)=O)cc3)cc2-c2nnc(N)s2)cc1 [Compound 10]"
  tested.target: "SK-MEL-5"
  unit.of.measurement: "%"
  value.modifier: "="
  inhibition at 10 µM: 18.5
- compound: "Cc1ccc(-c2nn(-c3ccc(S(N)(=O)=O)cc3)cc2C(=O)OCC(=O)Nc2ccc(S(N)(=O)=O)cc2)cc1 [Compound 4b]"
  tested.target: "SK-MEL-5"
  unit.of.measurement: "%"
  value.modifier: "<"
  inhibition at 10 µM: 5
- compound: "Cc1ccc(-c2nn(-c3ccc(S(N)(=O)=O)cc3)cc2C(=O)OCC(=O)Nc2nnc(S(N)(=O)=O)s2)cc1 [Compound 6b]"
  tested.target: "SK-MEL-5"
  unit.of.measurement: "%"
  value.modifier: "="
  inhibition at 10 µM: 23
- compound: "Cc1ccc(-c2nn(-c3ccc(S(N)(=O)=O)cc3)cc2-c2n[nH]c(=S)[nH]2)cc1 [Compound 11]"
  tested.target: "SK-MEL-5"
  unit.of.measurement: "%"
  value.modifier: "<"
  inhibition at 10 µM: 5
- compound: "NS(=O)(=O)c1ccc(-n2cc(C(=O)OCC(=O)Nc3nnc(S(N)(=O)=O)s3)c(-c3ccccc3)n2)cc1 [Compound 6a]"
  tested.target: "SK-MEL-5"
  unit.of.measurement: "%"
  value.modifier: "<"
  inhibition at 10 µM: 5
- compound: "NC(=S)NNC(=O)c1cn(-c2ccc(S(N)(=O)=O)cc2)nc1-c1ccccc1 [Compound 9a]"
  tested.target: "SK-MEL-5"
  unit.of.measurement: "%"
  value.modifier: "<"
  inhibition at 10 µM: 5
- compound: "NC(=S)NNC(=O)c1cn(-c2ccc(S(N)(=O)=O)cc2)nc1-c1ccc(Br)cc1 [Compound 9d]"
  tested.target: "SK-MEL-5"
  unit.of.measurement: "%"
  value.modifier: "<"
  inhibition at 10 µM: 5
- compound: "CCOC(=O)c1ccc(NC(=O)COC(=O)c2cn(-c3ccc(S(N)(=O)=O)cc3)nc2-c2ccccc2)cc1 [Compound 5a]"
  tested.target: "SK-MEL-5"
  unit.of.measurement: "%"
  value.modifier: "="
  inhibition at 10 µM: 70.1

* * *

Some compounds, each annotated with its measured inhibition at 10 µM.
tested on: U251; test: NCI-60 one-dose SRB screen (CNS Cancer); format: cell-based; conditions: Homo sapiens, U-251, single dose 10 µM, 48 h, read-out: Growth inhibition percent (GI %)
reported.property: inhibition at 10 µM

- molecule: "Cc1ccc(-c2nn(-c3ccc(S(N)(=O)=O)cc3)cc2C(=O)NNC(N)=S)cc1"
  reported.property: "inhibition at 10 µM"
  value.measured: "< 5%"
- molecule: "Cc1ccc(-c2nn(-c3ccc(S(N)(=O)=O)cc3)cc2-c2n[nH]c(=S)[nH]2)cc1"
  reported.property: "inhibition at 10 µM"
  value.measured: "5.33%"
- molecule: "CCOC(=O)c1ccc(NC(=O)COC(=O)c2cn(-c3ccc(S(N)(=O)=O)cc3)nc2-c2ccc(S(C)(=O)=O)cc2)cc1"
  reported.property: "inhibition at 10 µM"
  value.measured: "5.78%"
- molecule: "NS(=O)(=O)c1ccc(-n2cc(C(=O)OCC(=O)Nc3nnc(S(N)(=O)=O)s3)c(-c3ccccc3)n2)cc1"
  reported.property: "inhibition at 10 µM"
  value.measured: "< 5%"
- molecule: "Cc1ccc(-c2nn(-c3ccc(S(N)(=O)=O)cc3)cc2C(=O)OCC(=O)Nc2nnc(S(N)(=O)=O)s2)cc1"
  reported.property: "inhibition at 10 µM"
  value.measured: "< 5%"
- molecule: "CCOC(=O)c1ccc(NC(=O)COC(=O)c2cn(-c3ccc(S(N)(=O)=O)cc3)nc2-c2ccc(C)cc2)cc1"
  reported.property: "inhibition at 10 µM"
  value.measured: "54.1%"
- molecule: "CCOC(=O)c1ccc(NC(=O)COC(=O)c2cn(-c3ccc(S(N)(=O)=O)cc3)nc2-c2ccccc2)cc1"
  reported.property: "inhibition at 10 µM"
  value.measured: "58.5%"
- molecule: "COc1ccc(-c2nn(-c3ccc(S(N)(=O)=O)cc3)cc2C(=O)OCC(=O)Nc2nnc(S(N)(=O)=O)s2)cc1"
  reported.property: "inhibition at 10 µM"
  value.measured: "< 5%"
- molecule: "NC(=S)NNC(=O)c1cn(-c2ccc(S(N)(=O)=O)cc2)nc1-c1ccc(Br)cc1"
  reported.property: "inhibition at 10 µM"
  value.measured: "< 5%"
- molecule: "CCOC(=O)c1ccc(NC(=O)COC(=O)c2cn(-c3ccc(S(N)(=O)=O)cc3)nc2-c2ccc(Br)cc2)cc1"
  reported.property: "inhibition at 10 µM"
  value.measured: "57.9%"
- molecule: "CS(=O)(=O)c1ccc(-c2nn(-c3ccc(S(N)(=O)=O)cc3)cc2C(=O)OCC(=O)Nc2ccc(S(N)(=O)=O)cc2)cc1"
  reported.property: "inhibition at 10 µM"
  value.measured: "< 5%"
- molecule: "NS(=O)(=O)c1ccc(NC(=O)COC(=O)c2cn(-c3ccc(S(N)(=O)=O)cc3)nc2-c2ccccc2)cc1"
  reported.property: "inhibition at 10 µM"
  value.measured: "< 5%"
- molecule: "Cc1ccc(-c2nn(-c3ccc(S(N)(=O)=O)cc3)cc2C(=O)OCC(=O)Nc2ccc(S(N)(=O)=O)cc2)cc1"
  reported.property: "inhibition at 10 µM"
  value.measured: "< 5%"

* * *

tested on: KM12; experiment: NCI-60 one-dose SRB screen (Colon Cancer); type: cell-based; details: Homo sapiens, single dose 10 µM, 48 h, read-out: Growth inhibition percent (GI %)

- compound: "CS(=O)(=O)c1ccc(-c2nn(-c3ccc(S(N)(=O)=O)cc3)cc2C(=O)OCC(=O)Nc2ccc(S(N)(=O)=O)cc2)cc1 [Compound 4e]"
  inhibition at 10 µM: "< 5%"
- compound: "CCOC(=O)c1ccc(NC(=O)COC(=O)c2cn(-c3ccc(S(N)(=O)=O)cc3)nc2-c2ccccc2)cc1 [Compound 5a]"
  inhibition at 10 µM: "73.6%"
- compound: "Cc1ccc(-c2nn(-c3ccc(S(N)(=O)=O)cc3)cc2-c2n[nH]c(=S)[nH]2)cc1 [Compound 11]"
  inhibition at 10 µM: "< 5%"
- compound: "NC(=S)NNC(=O)c1cn(-c2ccc(S(N)(=O)=O)cc2)nc1-c1ccccc1 [Compound 9a]"
  inhibition at 10 µM: "< 5%"
- compound: "COc1ccc(-c2nn(-c3ccc(S(N)(=O)=O)cc3)cc2C(=O)OCC(=O)Nc2ccc(S(N)(=O)=O)cc2)cc1 [Compound 4c]"
  inhibition at 10 µM: "< 5%"
- compound: "COc1ccc(-c2nn(-c3ccc(S(N)(=O)=O)cc3)cc2C(=O)NNC(N)=S)cc1 [Compound 9c]"
  inhibition at 10 µM: "< 5%"
- compound: "CCOC(=O)c1ccc(NC(=O)COC(=O)c2cn(-c3ccc(S(N)(=O)=O)cc3)nc2-c2ccc(C)cc2)cc1 [Compound 5b]"
  inhibition at 10 µM: "70.3%"
- compound: "CCOC(=O)c1ccc(NC(=O)COC(=O)c2cn(-c3ccc(S(N)(=O)=O)cc3)nc2-c2ccc(Br)cc2)cc1 [Compound 5d]"
  inhibition at 10 µM: "76.7%"
- compound: "CCOC(=O)c1ccc(NC(=O)COC(=O)c2cn(-c3ccc(S(N)(=O)=O)cc3)nc2-c2ccc(S(C)(=O)=O)cc2)cc1 [Compound 5e]"
  inhibition at 10 µM: "< 5%"
- compound: "NS(=O)(=O)c1ccc(-n2cc(C(=O)OCC(=O)Nc3nnc(S(N)(=O)=O)s3)c(-c3ccccc3)n2)cc1 [Compound 6a]"
  inhibition at 10 µM: "< 5%"
- compound: "Cc1ccc(-c2nn(-c3ccc(S(N)(=O)=O)cc3)cc2C(=O)OCC(=O)Nc2ccc(S(N)(=O)=O)cc2)cc1 [Compound 4b]"
  inhibition at 10 µM: "< 5%"
- compound: "Cc1ccc(-c2nn(-c3ccc(S(N)(=O)=O)cc3)cc2C(=O)NNC(N)=S)cc1 [Compound 9b]"
  inhibition at 10 µM: "< 5%"
- compound: "CS(=O)(=O)c1ccc(-c2nn(-c3ccc(S(N)(=O)=O)cc3)cc2C(=O)NNC(N)=S)cc1 [Compound 9e]"
  inhibition at 10 µM: "< 5%"
